# Tested on: upland rice (Oryza sp., var. Tebonnet, RICE)
# experiment-summary: Pre-emerge test, crop safety
# Assay type: in vivo
# condition-description: 63 g ai/ha; pre-emerge; rated 14 days after application; 0 = no damage, 100 = complete death
# Experimental: A standard greenhouse herbicide activity screening system was used to evaluate the herbicidal efficacy and crop safety of these test compounds. […] At 14 days after application of the test materials, phytotoxicity ratings were recorded. […]
measure-name: Pre-emerge crop damage RICE (phytotoxicity rating, scale 0-100)
One number for each entry.

Example entries begin here.
compound-smiles | target-or-system | recorded-value
COC(=O)C(=O)Nc1c(OC)c(Cl)cc(F)c1-n1c(=O)cc(C(F)(F)F)n(C)c1=O | upland rice (Oryza sp., var. Tebonnet, RICE) | 10
COc1c(Cl)cc(F)c(-n2c(=O)cc(C(F)(F)F)n(C)c2=O)c1NC(=O)C(F)(F)F | upland rice (Oryza sp., var. Tebonnet, RICE) | 0
CCOC(=O)CC(=O)Nc1c(OC(=O)CC(=O)OCC)c(Cl)cc(F)c1-n1c(=O)cc(C(F)(F)F)n(C)c1=O | upland rice (Oryza sp., var. Tebonnet, RICE) | 0
COc1c(Cl)cc(F)c(-n2c(=O)cc(C(F)(F)F)n(C)c2=O)c1NC(=O)C=C(C)C | upland rice (Oryza sp., var. Tebonnet, RICE) | 60
Cn1c(C(F)(F)F)cc(=O)n(-c2c(F)cc(Cl)c(OCC#N)c2NC(=O)C(F)(F)F)c1=O | upland rice (Oryza sp., var. Tebonnet, RICE) | 10

Lab note: each molecule below needs its Pre-emerge crop damage RICE (phytotoxicity rating, scale 0-100) filled in.
1. CCOc1c(Cl)cc(F)c(-n2c(=O)cc(C(F)(F)F)n(C)c2=O)c1N
2. COc1c(Cl)cc(F)c(-n2c(=O)cc(C(F)(F)F)n(C)c2=O)c1N1CCCC1
3. COc1c(Cl)cc(F)c(-n2c(=O)cc(C(F)(F)F)n(C)c2=O)c1N(C(=O)C1CC1)C(=O)C1CC1

Result:
[50, 20, 0]

###

# Tested on: redroot pigweed (Amaranthus retroflexus, AMARE)
# experiment-summary: Pre-emerge test, greenhouse herbicide activity screening
# Assay type: in vivo
# condition-description: pre-emerge, 250 g ai/ha, 14 days after application, rating scale 0-100
measure-name: phytotoxicity rating AMARE
One number for each entry.

Example entries begin here.
compound | target-or-system | phytotoxicity rating AMARE
Cn1c(C(F)(F)F)cc(=O)n(-c2ccc(Cl)cc2C(=O)c2ccccc2)c1=O [14-57] | redroot pigweed (Amaranthus retroflexus, AMARE) | 0
COc1c(Cl)cc(F)c(-n2c(=O)cc(C(F)(F)F)n(C)c2=O)c1NNC(=O)C1CC1 [Compound 15-2] | redroot pigweed (Amaranthus retroflexus, AMARE) | 100
COc1c(Cl)cc(F)c(-n2c(=O)cc(C(F)(F)F)n(C)c2=O)c1NNC(=O)c1ccc(F)cc1F [15-4] | redroot pigweed (Amaranthus retroflexus, AMARE) | 100
COc1c(Cl)cc(F)c(-n2c(=O)cc(C(F)(F)F)n(C)c2=O)c1SC [Compound 17-1] | redroot pigweed (Amaranthus retroflexus, AMARE) | 90
CCOC(=O)CC(C)=NNc1c(OC)c(Cl)cc(F)c1-n1c(=O)cc(C(F)(F)F)n(C)c1=O [15-16] | redroot pigweed (Amaranthus retroflexus, AMARE) | 100

Moving on to another compound below.
Request: Entry COc1c(Cl)cc(F)c(-n2c(=O)cc(C(F)(F)F)n(C)c2=O)c1NN=CC1CC1 [Compound 15-11] has what phytotoxicity rating AMARE?
Result: 100

###

# Test system: green foxtail (Setaria viridis, SETVI)
# experiment-summary: Pre-emerge test, greenhouse herbicide activity screening
# Format: in vivo
# condition-description: pre-emerge, 63 g ai/ha, 14 days after application, scale 0-100
# Method: A standard greenhouse herbicide activity screening system was used to evaluate the herbicidal efficacy and crop safety of these test compounds. […] At 14 days after application of the test materials, phytotoxicity ratings were recorded. […]
I'd be grateful if you could share measured phytotoxicity rating SETVI for these entries.
Numbers only.

compound-smiles | phytotoxicity rating SETVI
COc1c(C#N)cc(F)c(-n2c(=O)cc(C(F)(F)F)n(C)c2=O)c1NC(=O)c1ccc2ccccc2c1 | 30

Lab note: each compound below needs its phytotoxicity rating SETVI filled in.
1. COc1c(Cl)cc(F)c(-n2c(=O)cc(C(F)(F)F)n(N)c2=O)c1NC(=O)COCc1ccccc1
2. Cn1c(C(F)(F)F)cc(=O)n(-c2ccccc2NC(=O)c2ccc3ccccc3c2)c1=O
3. COc1c(Cl)cc(F)c(-n2c(=O)cc(C(F)(F)F)n(C)c2=O)c1NC(=O)C=Cc1ccccc1F
4. COc1c(Cl)cc(F)c(-n2c(=O)cc(C(F)(F)F)n(C)c2=O)c1NC(=O)CCc1cc(C)ccc1C
5. Cn1c(C(F)(F)F)cc(=O)n(-c2ccc(C#N)cc2NC(=O)c2ccc3ccccc3c2)c1=O
6. COc1ccc(-n2c(=O)cc(C(F)(F)F)n(C)c2=O)c(NC(=O)c2ccc3ccccc3c2)c1

Result:
1: 50; 2: 0; 3: 50; 4: 50; 5: 50; 6: 30

Request: Entry `COc1ccccc1C=CC(=O)Nc1c(OC)c(Cl)cc(F)c1-n1c(=O)cc(C(F)(F)F)n(C)c1=O` has what phytotoxicity rating SETVI?
Result: 20

###

I'd be grateful if you could share measured Post-emerge Herbicidal Activity IPOHE (phytotoxicity rating) for these entries.
# Tested on: ivyleaf morningglory (Ipomoea hederacea, IPOHE)
# experiment-summary: Post-emerge test, greenhouse herbicide activity screening
# Type: in vivo
# condition-description: 63 g ai/ha; post-emerge; 14 days after application; rating scale 0-100

Example entries begin here.
molecule | recorded-value
CCCOC(=O)C(Cl)Cc1c(OCC)c(Cl)cc(F)c1-n1c(=O)cc(C(F)(F)F)n(C)c1=O (stereo not drawn) [14-66] | 70
COc1c(Cl)cc(F)c(-n2c(=O)cc(C(F)(F)F)n(C)c2=O)c1NN=C(C(F)(F)F)C(F)(F)F | 100
COc1c(Cl)cc(F)c(-n2c(=O)cc(C(F)(F)F)n(C)c2=O)c1NNC(=O)C1CC1 | 90

Lab note: each molecule below needs its Post-emerge Herbicidal Activity IPOHE (phytotoxicity rating) filled in.
1. COc1c(Cl)cc(F)c(-n2c(=O)cc(C(F)(F)F)n(C)c2=O)c1NN=CC(C)c1ccccc1 (stereo not drawn)
2. CCCOC(=O)C(Cl)Cc1c(OCC)c(Cl)cc(F)c1-n1c(=O)cc(C(F)(F)F)n(C)c1=O (stereo not drawn) [14-65]
3. COc1c(Cl)cc(F)c(-n2c(=O)cc(C(F)(F)F)n(C)c2=O)c1NN=Cc1ccc(F)cc1F

Result:
1. 100
2. 50
3. 100

###

I'd be grateful if you could share measured phytotoxicity rating RICE (crop damage) for these entries.
# Test system: upland rice (Oryza sp., var. Tebonnet, RICE)
# experiment-summary: Post-emerge test, crop safety
# Assay type: in vivo
# condition-description: post-emerge, 63 g ai/ha, 14 days after application, rating scale 0-100
# Method: A standard greenhouse herbicide activity screening system was used to evaluate the herbicidal efficacy and crop safety of these test compounds. […] At 14 days after application of the test materials, phytotoxicity ratings were recorded. […]
Answers are plain numbers.

Example entries begin here.
compound | recorded-value
Cc1ccc(-n2c(=O)cc(C(F)(F)F)n(C)c2=O)c(NC(=O)c2ccc3ccccc3c2)c1 | 60
COc1c(Cl)cc(F)c(-n2c(=O)cc(C(F)(F)F)n(C)c2=O)c1NC(=O)OC(c1ccccc1)C1CC1 (centres unmarked) | 10
COc1c(Cl)ccc(-n2c(=O)cc(C(F)(F)F)n(C)c2=O)c1NC(=O)c1ccc2ccccc2c1 | 20
COc1c(Cl)cc(F)c(-n2c(=O)cc(C(F)(F)F)n(C)c2=O)c1NC(=O)OCc1cccc(F)c1 | 70
Cc1c(Cl)cc(F)c(-n2c(=O)cc(C(F)(F)F)n(C)c2=O)c1NC(=O)OCc1ccccc1Cl | 90
COc1c(Cl)cc(F)c(-n2c(=O)cc(C(F)(F)F)n(C)c2=O)c1NC(=O)OCc1ccccc1C(F)(F)F | 30
COc1c(Cl)cc(F)c(-n2c(=O)cc(C(F)(F)F)n(C)c2=O)c1NC(=O)OCc1cc(F)ccc1F | 60
COc1c(Cl)cc(F)c(-n2c(=O)cc(C(F)(F)F)n(C)c2=O)c1NC(=O)OC(C)c1ccccc1 (centres unmarked) | 30

Lab note: each compound below needs its phytotoxicity rating RICE (crop damage) filled in.
1. Cc1c(Cl)cc(F)c(-n2c(=O)cc(C(F)(F)F)n(C)c2=O)c1NC(=O)OCCc1ccccc1
2. COC(=O)N(C(=O)OC)c1c(OC)c(Cl)cc(F)c1-n1c(=O)cc(C(F)(F)F)n(C)c1=O
3. Cn1c(C(F)(F)F)cc(=O)n(-c2ccc(OC(F)(F)F)cc2NC(=O)c2ccc3ccccc3c2)c1=O
4. CCc1ccc(COC(=O)Nc2c(OC)c(Cl)cc(F)c2-n2c(=O)cc(C(F)(F)F)n(C)c2=O)cc1
5. Cn1c(C(F)(F)F)cc(=O)n(-c2ccc(C(N)=S)cc2NC(=O)c2ccc3ccccc3c2)c1=O

Result:
50
0
25
20
30
